- Test system: K4 kissing-loop RNA reporter;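 also: bound reporter read as fluorescence of individual clusters on recovered sequencing chips by microscopy, with normalized cluster intensities fitted with a binding model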
- protocol-notes: apparent KD of K4 kissing-loop reporter; higher = weaker reporter binding
- experimental-setup: Eterna round: R107; input ligand: none
Classify as follows. Reported apparent KD of K4 kissing-loop reporter greater than or equal to 400 nM: True. Reported apparent KD of K4 kissing-loop reporter below: False.

Take a look at these entries with their results.
Qu. Could you please find out whether UUCUUGAUGGAAACAUCGAGAAUUACUGAUACCAGUAUCGAUAGAUACCCUUGGCAGCAGAAUCAGUAAUAACGAGUGAUGUUCG [Ex Theophylline A K4 4] has apparent KD of K4 kissing-loop reporter that meets 400 nM or exceeds it?
Ans. False

Qu. State whether the measured apparent KD of K4 kissing-loop reporter reaches 400 nM, counting equality as reaching it, for CGAAGACUUAUGGAUACCAGCCUAGCAUCAGGUGGUUCAGAGGCAUGCAGUGAUGUUGCAGGCCCUUGGCAGCCAUGGUACUAGA [Xelebi]
Ans. False

Qu. Textbook exercise: given the entry GGUGUUGUUUGUGCCGCCUUCCUCGUUCCUCGAGGACCGGUACGGCCGCCACUCGAGUGAUGUUUGGGUAGCGAUCCCUGCUAGU [Bdazzled - #12 Exc. Tryptophan A] , state whether its apparent KD of K4 kissing-loop reporter is greater than or equal to 400 nM.
Ans. True

Next:
Qu. # bool: apparent KD of K4 kissing-loop reporter of UGACUGGAUGGAAGGAGCGCUAAACUCCUAGUGAUGUUAGGGACACGAGACAAAGUCUUGAAGCAGGUAGGUCGCCAUCUAGUCU [FiskerMod 9 - Jieux - Same State - Arginine B] >= 400 nM
Ans. False

----------
- Tested on: MS2 coat protein
- protocol-notes: apparent KD of MS2 coat protein; designed switch direction (-1 OFF switch, 1 ON switch): 1; higher = weaker reporter binding
- experimental-setup: Eterna round: R95; input ligand: none
reported-property: apparent KD of MS2 coat protein
Remember to quote the unit after the number.

Worked set:
Qu. Write down apparent KD of MS2 coat protein measured for item CCAUGGUAACAUGAGGAUCACCCAUGUACAAGCUUUUUGCUCGUCUUACCCGGCGCGCCCAUUAUGGGCGCGCCGGG [Nishu_Seq3] (puzzle: Sensor for hsa-mir-208a version 2)
Ans. 32.5 nM

Qu. Could you please provide reported apparent KD of MS2 coat protein for AGAAAAGUUUACGAGGAUAUGUUCCGCAUAACAUGAGGAUCACCCAUGUGAACAAGAAAGGCGACGCAGAAGGCGUGAGCAAAAG [Mat - Same State 2 - Mod of UCT - D98] (puzzle: Same State 2) ? Thanks!
Ans. 116 nM

Please examine the following record next.
Qu. Identify the reported apparent KD of MS2 coat protein for the following entry. UACAAUCUAUCUGAGGAUAUCAUGAUUGUAACAUGAGGAUCACCCAUGUGCAGGAAAACUGCAUAUGAGAAGGCAGAUAGAUUGU [salish99_ss2_r3_071] (puzzle: Same State 2)
Ans. 708 nM

----------
- System: MS2 coat protein
- protocol-notes: apparent KD of MS2 coat protein; designed switch direction (-1 OFF switch, 1 ON switch): -1; higher = weaker reporter binding
- experimental-setup: input ligand: FMN 200 uM
reported-property: apparent KD of MS2 coat protein (nM)
Return type: number; implicit unit nM.

These solved cases illustrate the format of a correct answer.
Qu. Supply apparent KD of MS2 coat protein value. Item: AGCAGCCAAUCAGGAUAUACUUUCAGGUGAAGCGUCGCGGGCGAUAACAUGAGGAUCACCCAUGUGUAGAAGGGAUGCGCAAAC [Eternabot solution 39] (Eterna round: R96, puzzle: Exclusion NG 2)
Ans. 45.8

Qu. Identify measured apparent KD of MS2 coat protein corresponding to CUGUACUGAGGAUAUACAUGAGGAUCACCCAUGUUCUUCAGCUAGGAAACUAGCAAAGGUAGAAGGCAGUACAG [Mat - Exclusion 3 - Eli Mod - D69] (Eterna round: R97, puzzle: Exclusion 3)
Ans. 784

Qu. Read off the recorded apparent KD of MS2 coat protein for GGGAAGAACCAACAAGUUAACAUGAGGAUCACCCAUGUUGACUUCAUGUGCACGCAAAGCGUGCAAGCUCGUCUUAU [AK-miRNA-r3-15] (Eterna round: R97, puzzle: Sensor, turn-off variant 1)
Ans. 17.9

Qu. Supply recorded apparent KD of MS2 coat protein for GUCAUGAUAGGAUAUUACGGACGGAACAUGAGGAUCACCCAUGUGUCCCAAUCCAACUGAUAAGAAGGAUCAUGGC [Eternabot (Original) Solution 34] (Eterna round: R97, puzzle: Exclusion 5) here.
Ans. 18.8

More entries:
Qu. Item GCUUAUAGAGGAUAUACAGAUUAUUACAUGAGGAUCACCCAUGUUCUUCAAUGUAUAUAUGUAGAAGGCUAAGGAG [Mat - Exclusion 5 - JL Mod - D11] (Eterna round: R97, puzzle: Exclusion 5) : provide apparent KD of MS2 coat protein
Ans. 175
